molecular target: DAPK2 (human) (UniProt Q9UIK4); assay: radiometric filter-binding kinase assay, Kinase HotSpot; settings: compound 0.5 µM; ATP 10 µM
Sequence (Q9UIK4 whole entry, looked up): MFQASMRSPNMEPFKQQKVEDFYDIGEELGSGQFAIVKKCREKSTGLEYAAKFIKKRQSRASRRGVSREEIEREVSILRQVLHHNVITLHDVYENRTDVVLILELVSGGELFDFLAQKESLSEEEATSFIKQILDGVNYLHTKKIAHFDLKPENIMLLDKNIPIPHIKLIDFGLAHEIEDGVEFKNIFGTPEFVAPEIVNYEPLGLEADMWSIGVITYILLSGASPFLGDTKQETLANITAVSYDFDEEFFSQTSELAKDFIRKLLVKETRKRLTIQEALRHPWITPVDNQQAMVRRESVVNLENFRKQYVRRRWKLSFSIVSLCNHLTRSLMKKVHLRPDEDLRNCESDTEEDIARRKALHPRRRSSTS
VALUE_KIND: residual activity (%)
# value in %; strip the unit string

Examples with their reported residual activity follow.
>  <SMI>
COc1cc2ncnc(Nc3cccc(Cl)c3)c2cc1OC

>  <residual activity / %>
93.3

$$$$
>  <SMI>
O=C1NC(=O)/C(=C/c2ccc3c(c2)OC(F)(F)O3)S1

>  <residual activity / %>
105

$$$$
>  <SMI>
Nc1ncnc2[nH]nc(Nc3ccc(F)cc3)c12

>  <residual activity / %>
85.5

$$$$

# input Answer briefly: residual activity recorded on DAPK2 (human) (UniProt Q9UIK4) for O=C1Nc2ccc(Cl)cc2/C1=C/c1cc(Cl)c(O)c(Cl)c1
# output 135

# input Answer briefly: residual activity recorded on DAPK2 (human) (UniProt Q9UIK4) for c1ccc(-c2n[nH]c3c2oc2ccccc23)cc1
# output 71.2

# input Answer briefly: residual activity recorded on DAPK2 (human) (UniProt Q9UIK4) for CCOC(=O)c1c(C)[nH]c(/C=C2\C(=O)Nc3ccccc32)c1C
# output 96.3

# input Answer briefly: residual activity recorded on DAPK2 (human) (UniProt Q9UIK4) for CCC(=O)Nc1ccc2ncnc(Nc3cccc(Br)c3)c2c1
# output 121

# input Answer briefly: residual activity recorded on DAPK2 (human) (UniProt Q9UIK4) for O=C1NC(=O)c2c1c1c3ccccc3n3c1c1c2c2ccccc2n1C1CCC3O1
# output 39.4

====

biological target: PRKCZ (human); assay: radiometric filter-binding kinase assay, Kinase HotSpot; details: compound 0.5 µM; ATP 10 µM
VALUE_KIND: residual activity (%)
# value in %; strip the unit string

Examples with their reported residual activity follow.
>  <COMPOUND>
COc1cc2ncnc(Nc3cccc(Cl)c3)c2cc1OC

>  <TESTED_SYSTEM>
PRKCZ (human)

>  <UNIT_ABBREVIATION>
%

>  <residual activity>
102

$$$$
>  <COMPOUND>
CO[C@H]1CC2CC[C@@H](C)[C@@](O)(O2)C(=O)C(=O)N2CCCC[C@H]2C(=O)OC([C@H](C)C[C@@H]2CC[C@@H](O)[C@H](OC)C2)CC(=O)[C@H](C)/C=C(\C)[C@@H](O)[C@@H](OC)C(=O)[C@H](C)C[C@H](C)/C=C/C=C/C=C/1C (some centres undefined)

>  <TESTED_SYSTEM>
PRKCZ (human)

>  <UNIT_ABBREVIATION>
%

>  <residual activity>
105

$$$$
>  <COMPOUND>
Cc1ccc(S(=O)(=O)/C=C/C#N)cc1

>  <TESTED_SYSTEM>
PRKCZ (human)

>  <UNIT_ABBREVIATION>
%

>  <residual activity>
101

$$$$

Proceeding to the next compound to report its residual activity.
# input Write down residual activity measured for item c1ccc(-c2n[nH]cc2-c2ccnc3ccccc23)nc1
# output 115

====

target: SGK3 (human) (UniProt Q96BR1); test: radiometric filter-binding kinase assay, Kinase HotSpot; conditions: compound 0.5 µM; ATP 10 µM
Sequence (Q96BR1 whole entry, looked up): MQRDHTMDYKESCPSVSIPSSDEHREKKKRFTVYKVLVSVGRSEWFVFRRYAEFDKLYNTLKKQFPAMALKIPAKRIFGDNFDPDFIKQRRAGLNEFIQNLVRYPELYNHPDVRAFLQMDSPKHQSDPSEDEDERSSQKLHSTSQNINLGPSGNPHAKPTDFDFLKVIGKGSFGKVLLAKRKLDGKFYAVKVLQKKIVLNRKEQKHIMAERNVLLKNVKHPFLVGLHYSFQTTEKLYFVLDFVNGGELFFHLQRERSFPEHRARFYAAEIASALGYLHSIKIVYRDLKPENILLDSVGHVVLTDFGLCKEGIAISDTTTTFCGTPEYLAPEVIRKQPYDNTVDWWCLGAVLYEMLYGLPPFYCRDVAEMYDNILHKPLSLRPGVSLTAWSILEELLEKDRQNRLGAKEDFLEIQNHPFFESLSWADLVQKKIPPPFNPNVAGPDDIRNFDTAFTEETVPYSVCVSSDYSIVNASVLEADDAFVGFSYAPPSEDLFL
Attribute: residual activity

>  <SMI>
COc1ccc(COc2ccc(Cc3cnc(N)nc3N)cc2OC)cc1

>  <residual activity>
105%

$$$$
>  <SMI>
O=C(Nc1cccc(Nc2nccc(Nc3cccc(C(F)(F)F)c3)n2)c1)C1CC1

>  <residual activity>
111%

$$$$
>  <SMI>
CNC(=O)c1cc(Oc2ccc(NC(=O)Nc3ccc(Cl)c(C(F)(F)F)c3)cc2)ccn1

>  <residual activity>
101%

$$$$
>  <SMI>
COc1cc2ncnc(Nc3cccc(Cl)c3)c2cc1OC

>  <residual activity>
90.9%

$$$$

# input Write down residual activity measured for item Nc1ncnc2[nH]nc(Nc3ccc(F)cc3)c12
# output 102%
